Entry source: PubChem BioAssay AID2060901

viability, T/C by entry:
- System: 422866-222-R5-J1-PDC complex spheroids viability
- measurement-description: Anticancer human tumor 422866-222-R5-J1-PDC patient-derived pancreatic adenocarcinoma cell line growth inhibition [RAS]
- condition-context: second compound 0.00949 µM; first compound 3.16 µM; stronger effect = lower value
- Description: RAS pathway inhibitors in Combinations in Complex Spheroids A high-throughput screen of multi-cell type tumor spheroids was designed to identify active combinations of RAS pathway inhibitors and targeted small molecules. Complex spheroids include a stromal component modeled by human endothelial cells (HUVEC) and fibroblasts modeled by human mesenchymal stem cells (MSCs). […] Compounds. […] If the clinical Cmax for an agent had not been determined, the highest concentration tested was 10 microM. […]
Write the answer as a number in %, unit excluded.

{"compound": "C[C@@H](NC(=O)c1ncnc(N)c1Cl)c1ncc(C(=O)Nc2cc(C(F)(F)F)c(Cl)cn2)s1 + CCn1c(-c2cccnc2C(C)OC)c2c3cc(ccc31)N1CCOC(CC(NC(=O)C(C(C)C)N(C)C(=O)C3(F)CCN(C(=O)C#CC(C)(C)N(C)C)CC3)C(=O)N3CCCC(N3)C(=O)OCC(C)(C)C2)C1", "measure-unit": "%", "viability, T/C": 24.6}
{"compound": "CC(=O)OC12COC1CC(O)C1(C)C(=O)C(O)C3=C(C)C(OC(=O)C(O)C(NC(=O)OC(C)(C)C)c4ccccc4)CC(O)(C(OC(=O)c4ccccc4)C21)C3(C)C (stereo not given) + CCn1c(-c2cc(N3CCN(C)CC3)cnc2C(C)OC)c2c3cc(ccc31)-c1csc(n1)CC(NC(=O)C1CC1C)C(=O)N1CCCC(N1)C(=O)OCC(C)(C)C2", "measure-unit": "%", "viability, T/C": 17.3}
{"compound": "NC1c2ccccc2OC12CCN(c1cnc3c(N4CCCc5ncccc54)n[nH]c3n1)CC2 (stereo not given) + CCn1c(-c2cc(N3CCN(C)CC3)cnc2C(C)OC)c2c3cc(ccc31)-c1csc(n1)CC(NC(=O)C1CC1C)C(=O)N1CCCC(N1)C(=O)OCC(C)(C)C2", "measure-unit": "%", "viability, T/C": 18.5}
{"compound": "CC(Nc1ccc2c(c1)OCCn1cc(N3C(=O)OCC3C(F)F)nc1-2)C(N)=O (stereo not given) + CCn1c(-c2cc(N3CCN(C)CC3)cnc2C(C)OC)c2c3cc(ccc31)-c1csc(n1)CC(NC(=O)C1CC1C)C(=O)N1CCCC(N1)C(=O)OCC(C)(C)C2", "measure-unit": "%", "viability, T/C": 5.6}

Pending compound:
API: value(readout=viability, T/C, system=422866-222-R5-J1-PDC complex spheroids viability) for record Cc1nc(N2CCC3(CC2)COC(C)C3N)c(CO)nc1Sc1ccnc(N)c1Cl (stereo not given) + CCn1c(-c2cc(N3CCN(C)CC3)cnc2C(C)OC)c2c3cc(ccc31)-c1csc(n1)CC(NC(=O)C1CC1C)C(=O)N1CCCC(N1)C(=O)OCC(C)(C)C2
20.8

###

- Tested on: 422866-222-R5-J1-PDC complex spheroids viability
- measurement-description: Anticancer human tumor 422866-222-R5-J1-PDC cell line growth inhibition [RAS];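 note: spheroids exposed to compounds for 7 days; 100% = DMSO vehicle control viability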
- condition-context: second compound 0.003 µM; first compound 1 µM; stronger effect = lower value
Entries and their viability, T/C values follow.
A number alone suffices; assume %.

{"compound": "CC(C)NCC(C(=O)N1CCN(c2ncnc3c2C(C)CC3O)CC1)c1ccc(Cl)cc1 (stereo not drawn) + CCn1c(-c2cccnc2C(C)OC)c2c3cc(ccc31)N1CCOC(CC(NC(=O)C(C(C)C)N(C)C(=O)C3(F)CCN(C(=O)C#CC(C)(C)N(C)C)CC3)C(=O)N3CCCC(N3)C(=O)OCC(C)(C)C2)C1", "system": "422866-222-R5-J1-PDC complex spheroids viability", "assay-value": 14.7}

Recorded viability, T/C for CCC(CC)c1cc(NC2CCC(N)C2)n2nccc2n1 (stereo not drawn) + CCn1c(-c2cc(N3CCN(C)CC3)cnc2C(C)OC)c2c3cc(ccc31)-c1csc(n1)CC(NC(=O)C1CC1C)C(=O)N1CCCC(N1)C(=O)OCC(C)(C)C2 , please?
27.2

Would you kindly share the measured viability, T/C for C[C@@H](NC(=O)c1ncnc(N)c1Cl)c1ncc(C(=O)Nc2cc(C(F)(F)F)c(Cl)cn2)s1 + CCn1c(-c2cccnc2C(C)OC)c2c3cc(ccc31)N1CCOC(CC(NC(=O)C(C(C)C)N(C)C(=O)C3(F)CCN(C(=O)C#CC(C)(C)N(C)C)CC3)C(=O)N3CCCC(N3)C(=O)OCC(C)(C)C2)C1 ?
25.6

###

- Test system: 422866-222-R5-J1-PDC complex spheroids viability
- measurement-description: Anticancer human tumor 422866-222-R5-J1-PDC cell line growth inhibition [RAS];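 note: spheroids exposed to compounds for 7 days; 100% = DMSO vehicle control viability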
- condition-context: second compound 0.00316 µM; first compound 0.316 µM; stronger effect = lower value
experimental-endpoint: viability, T/C

{"compound": "NC1c2ccccc2OC12CCN(c1cnc3c(N4CCCc5ncccc54)n[nH]c3n1)CC2 (stereo not drawn) + C=CC(=O)N1CCN(c2nc(OCC3CCCN3C)nc3c(F)c(-c4nc(N)cc(C)c4C(F)(F)F)c(Cl)cc23)C(C)C1", "experimental-endpoint": "viability, T/C", "assay-value": "18.1%"}
{"compound": "O=C(c1ccc(F)c(F)c1Nc1ccc(I)cc1F)N1CC(O)([C@@H]2CCCCN2)C1 + C=CC(=O)N1CCN(c2nc(OCC3CCCN3C)nc3c(F)c(-c4nc(N)cc(C)c4C(F)(F)F)c(Cl)cc23)C(C)C1", "experimental-endpoint": "viability, T/C", "assay-value": "16.6%"}

Dear colleague, I am looking for the recorded viability, T/C of the following compound: CC(Nc1ccc2c(c1)OCCn1cc(N3C(=O)OCC3C(F)F)nc1-2)C(N)=O (stereo not drawn) + C=CC(=O)N1CCN(c2nc(OCC3CCCN3C)nc3c(F)c(-c4nc(N)cc(C)c4C(F)(F)F)c(Cl)cc23)C(C)C1
12.6%

###

- Test system: 422866-222-R5-J1-PDC complex spheroids viability
- measurement-description: Anticancer human tumor 422866-222-R5-J1-PDC cell line growth inhibition [RAS];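 note: spheroids exposed to compounds for 7 days; 100% = DMSO vehicle control viability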
- condition-context: second compound 1 µM; first compound 0.0316 µM; stronger effect = lower value
Threshold check on viability, T/C: strictly below 40% is 1 (yes); on or above 40% is 0 (no).

The examples below pair each entry with its known result.
{"molecule": "CC1(O)CCCC1n1c(=O)c(C(F)F)cc2cnc(NC3CCN(S(C)(=O)=O)CC3)nc21 (configuration not stated) + C#Cc1c(F)ccc2cc(O)cc(-c3ncc4c(N5CC6CCC(C5)N6)nc(OCC56CCCN5CC(F)C6)nc4c3F)c12", "system": "422866-222-R5-J1-PDC complex spheroids viability", "assigned-class": "0 (no)"}
{"molecule": "Nc1ccn(C2OC(CO)C(O)C2(F)F)c(=O)n1 (configuration not stated) + C#Cc1c(F)ccc2cc(O)cc(-c3ncc4c(N5CC6CCC(C5)N6)nc(OCC56CCCN5CC(F)C6)nc4c3F)c12", "system": "422866-222-R5-J1-PDC complex spheroids viability", "assigned-class": "1 (yes)"}

Does CC1(O)CCCC1n1c(=O)c(C(F)F)cc2cnc(NC3CCN(S(C)(=O)=O)CC3)nc21 (configuration not stated) + C=CC(=O)N1CCN(c2nc(OCC3CCCN3C)nc3c(F)c(-c4nc(N)cc(C)c4C(F)(F)F)c(Cl)cc23)C(C)C1 have viability, T/C strictly under 40%?
1 (yes)

Answer whether the molecule C[C@@H](NC(=O)c1ncnc(N)c1Cl)c1ncc(C(=O)Nc2cc(C(F)(F)F)c(Cl)cn2)s1 + C=CC(=O)N1CCN(c2nc(OCC3CCCN3C)nc3c(F)c(-c4nc(N)cc(C)c4C(F)(F)F)c(Cl)cc23)C(C)C1 has viability, T/C strictly less than 40%
1 (yes)

###

- System: 422866-222-R5-J1-PDC complex spheroids viability
- measurement-description: Anticancer human tumor 422866-222-R5-J1-PDC cell line growth inhibition [RAS];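 note: spheroids exposed to compounds for 7 days; 100% = DMSO vehicle control viability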
- condition-context: second compound 0.003 µM; first compound 0.0316 µM; stronger effect = lower value
experimental-endpoint: viability, T/C

{"compound": "O=C(c1ccc(F)c(F)c1Nc1ccc(I)cc1F)N1CC(O)([C@@H]2CCCCN2)C1 + CCn1c(-c2cc(N3CCN(C)CC3)cnc2C(C)OC)c2c3cc(ccc31)-c1csc(n1)CC(NC(=O)C1CC1C)C(=O)N1CCCC(N1)C(=O)OCC(C)(C)C2", "assay-value": "16.2%"}
{"compound": "Cc1nc(N2CCC3(CC2)COC(C)C3N)c(CO)nc1Sc1ccnc(N)c1Cl (stereo not drawn) + CCn1c(-c2cccnc2C(C)OC)c2c3cc(ccc31)N1CCOC(CC(NC(=O)C(C(C)C)N(C)C(=O)C3(F)CCN(C(=O)C#CC(C)(C)N(C)C)CC3)C(=O)N3CCCC(N3)C(=O)OCC(C)(C)C2)C1", "assay-value": "20.9%"}

The record that follows has no viability, T/C shown yet.
Look up viability, T/C: CC(C)n1nc(-c2ccc3oc(N)nc3c2)c2c(N)ncnc21 + CCn1c(-c2cccnc2C(C)OC)c2c3cc(ccc31)N1CCOC(CC(NC(=O)C(C(C)C)N(C)C(=O)C3(F)CCN(C(=O)C#CC(C)(C)N(C)C)CC3)C(=O)N3CCCC(N3)C(=O)OCC(C)(C)C2)C1
14.1%
